Attribution: paper PMC7795089

- assayName: In vitro cytotoxicity assay (neutral red), SK-OV-3
- Assay type: cell-based
- experimentalContext: human, SK-OV-3 cells (ovarian carcinoma), 48 h incubation, read-out: Cytotoxic activity IC50, SK-OV-3
reportedMetric: IC50 at 48 h (µM)
Report only the number, with the unit µM understood.

Given COc1cccc2c1C(=O)c1c(O)c3c(c(O)c1C2=O)C[C@@](O)(C(=O)CO)C[C@@H]3O[C@H]1C[C@H](N)[C@H](O)[C@H](C)O1 , state its recorded IC50 at 48 h. 1.47

* * *

- assayName: In vitro cytotoxicity assay (neutral red), BT-549
- Format: cell-based
- experimentalContext: human, BT-549 cells (breast ductal carcinoma), 48 h incubation, read-out: Cytotoxic activity IC50, BT-549
reportedMetric: IC50 at 48 h (nM)
Could you give me the number in nM? Just the number is fine.

Any idea what its IC50 at 48 h is? The molecule is COc1cccc2c1C(=O)c1c(O)c3c(c(O)c1C2=O)C[C@@](O)(C(=O)CO)C[C@@H]3O[C@H]1C[C@H](N)[C@H](O)[C@H](C)O1 1830
